binders and their reported ratio of MFI over secondary antibody alone
Biological target: human MS4A4A (human, UniProt Q96JQ5 1-239)
Assay: FACS, U937 cells overexpressing human MS4A4A, 5 ug/ml
Express it in ratio; write the number only.

Memo: anti-MS4A4A antibody 4A-205, huIgG1 chimera (antibody, V domains shown) VH: EVQLVESGGDLVKPGGSLKLSCAASGFTFSHYGMSWVRQTPDKRLDWVATIGRDGIHTDYRDSVKGRFTISRDNAKNTLYLQMGSLKSEDSAIFYCARHLYYGLYYSMDYWGQGTSVTVSS VL: ENVLTQSPAIMSASPGEKVTMTCSASSSVSFMYWYQQKSSTSPKLWIYDTSKLASGVPGRFSGSGSGNSYSLTISSMEAEDVATYYCFQGSGYPLTFGSGTKLEIK , reported ratio of MFI over secondary antibody alone: 25.3

Memo: anti-MS4A4A antibody 4A-209, huIgG1 chimera (antibody, V domains shown) VH: EVKLLESGGGLVQPGGSLKLSCAASGFDFSRYWMSWVRQAPGKGLEWIGEIKSDSSTINYTPSLKDKFIISRDNAKNTLYLQMSKVRSEDTALYYCARRGFYDYDAWFAYWGQGTLVTVSS VL: QIVLTQSPTLMSASPGEKVTMTCSASSSVTYMYWYQQKPRSSPKPWIYLTSNRASGVPTRFSGSGSGTSHSLTISYMEAEDAATYYCQQWSSNPPTFGAGTKLELR , reported ratio of MFI over secondary antibody alone: 19.8

Measured values drawn from patent US20230126400A1 for this set.
